The origin of these recorded values is PubChem BioAssay (NCI).

- Assay name: NCI Yeast Anticancer Drug Screen. Data for the mlh1 rad18 strain (AID 175)
- Experimental conditions: S. cerevisiae mlh1 rad18 strain growth inhibition; at 50.0 µM; active compounds read high
About 79,000 compounds went through this panel and 15% of them were active in at least one assay; those are over-represented in the sample as a whole.
Quantity name: growth inhibition (%)

>>> test_result("Cc1cc(=O)oc2cc(NC(=O)C(CCCN=C(N)N)NC(=O)OCc3ccccc3)ccc12 (stereo not given)")
7.1
>>> test_result("Cc1ccc(/C=C/c2cc(/C=C/c3ccc(C)cc3)c([N+](=O)[O-])cc2[N+](=O)[O-])cc1")
1.2
>>> test_result("Cc1ccc(C(c2ccccc2)C(CC(=O)O)CC(=O)O)cc1 (stereo not given)")
15.9
>>> test_result("CCOC(=O)CC1NC(=O)CNC1=O (stereo not given)")
-13.2
>>> test_result("C/C=C\\C=C\\C(=O)O")
-31.9
>>> test_result("CC1(C)OC(=O)c2ccccc21")
2.2
>>> test_result("OC(Cc1cccnc1)(c1ccccc1)c1cccc2ccccc12 (stereo not given)")
13.9
>>> test_result("Clc1cccc(-c2sc(-c3ccsc3)cc2Cc2ccsc2)c1")
2.1
>>> test_result("N#C/C(c1nc2ccccc2[nH]1)=c1\\s/c(=C(/N)O)c(=N)n1-c1ccccc1")
-47.6
>>> test_result("OCC1CC(c2ccccc2)=NO1 (stereo not given)")
-17.6
>>> test_result("O=C1c2cc(O)c(O)cc2C(=O)c2cc3c(cc21)OCO3")
-15.9
>>> test_result("CC12C=CC(=O)C=C1CCC1C2C(O)CC2(C)/C(=C\\CO)CCC12 (stereo not given)")
-3.35
>>> test_result("Cc1cc(=O)[nH]c(NNC(=S)NC2CCCCC2)n1")
-18.6
>>> test_result("CCc1[nH]nc(-c2n[nH]c(CC)c2C)c1C")
-9.3
>>> test_result("CS/C(=N/N=C(\\C)c1ccccn1)[Se][Se]/C(=N/N=C(\\C)c1ccccn1)SC")
30.9
>>> test_result("CCOc1ccccc1C(=O)O")
11.4
>>> test_result("Brc1ccc(C2NC(c3ccccc3)c3c(ccc4ccccc34)O2)cc1 (stereo not given)")
86.4
>>> test_result("COC(=O)C1CSC(C)(C)N1 (stereo not given)")
4.35
>>> test_result("O=C(NCC1(c2ccc3c(c2)OCO3)OCCO1)c1ccccc1[N+](=O)[O-]")
2.6
>>> test_result("Cc1nc(Cl)c(C)c(Cl)n1")
15.9
>>> test_result("O=C1CSC(C(N=Nc2ccc(Cl)cc2)c2nc3ccccc3[nH]2)=N1 (stereo not given)")
-46.7
>>> test_result("Clc1ccccc1C(N1CCCCC1)N1CCCCC1")
28.1
>>> test_result("Nc1nc2c(ncn2CC2CCOC2=O)c(=O)[nH]1 (stereo not given)")
-14.8
>>> test_result("COc1ccc(NS(=O)(=O)c2ccc(NCc3c4ccccc4nc4cc(Cl)ccc34)cc2)nn1")
37.5
>>> test_result("Nc1cccc(/C=C(/C(=O)O)c2ccc(Cl)cc2)c1")
0.15

----------
# growth inhibition values compiled below
- Assay name: NCI Yeast Anticancer Drug Screen. Data for the cln2 rad14 strain (AID 165);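 further: 0% = growth equal to vehicle treated cultures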
- Experimental conditions: S. cerevisiae cln2 rad14 strain, at 50.0 µM, active compounds read high
The panel holds about 79,000 compounds, 15% with a hit somewhere; the sample as a whole holds those more often. Where a SMILES comes first, the peptide text is derived from it. The star is where a group is joined. Boc = CC(C)(C)OC(=O)*
Quantity name: growth inhibition (%)

>>> test_result("CCCCCCCCCCCCCCCC[N+]1(CC)CCSCC1")
97.5
>>> test_result("O=C1/C(=C/c2cccs2)CCc2ccccc21")
-16.1
>>> test_result("CCCCCCCCS(N)(=O)=O")
-11.4
>>> test_result("COc1ccc(C(=CC2=CC(=O)C3=C(CCCC3)C2=O)c2ccc(OC)cc2)cc1")
-3.7
>>> test_result("CCCOc1ccc(C2=C(c3ccccc3)C(=O)C(c3ccccc3)=C2c2ccccc2)cc1")
20.2
>>> test_result("CC[n+]1cc([N+](=O)[O-])ccc1Cl")
15.9
>>> test_result("Cn1c(=O)n(C2OC(CO)C(O)C2O)c2ncnc(N)c21 (stereo not given)")
-43.1
>>> test_result("CC(NC(=O)C(NC(=O)OC(C)(C)C)C(C)C)C(=O)N1CCCC1C(=O)O (stereo not drawn) (Boc-Val-Ala-Pro-OH; configuration not given here)")
-28.7
>>> test_result("Clc1ccc(Cl)c(N=Nc2cc3c4c(c2)CCN4CCC3)c1")
-16.3
>>> test_result("COc1cc(C)cc2c(-c3c(O)cc(O)c4c3CC(C)N[C@H]4C)cc(-c3cc(-c4c(O)cc(O)c5c4CC(C)N[C@H]5C)c4cc(C)cc(OC)c4c3O)c(O)c12 (stereo not given in full)")
18.9

----------
- Assay name: NCI Yeast Anticancer Drug Screen. Data for the sgs1 mgt1 strain (AID 161);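 further: 0% = growth of cultures given vehicle only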
- Experimental conditions: S. cerevisiae sgs1 mgt1 strain, at 50.0 µM
Compounds without any hit were thinned out: in the full panel of roughly 79,000, 15% have a hit. Active and inactive are the calls of the source. Cut-off read from the data, not from the text of the source: active = growth inhibition above about 70%; inactive = the rest.
Possible outcomes: active, inactive

>>> answer_label("COc1ccc(/C=N/NC=O)cc1OC")
"inactive"
>>> answer_label("C=CC1CC(NC(=O)OC)C(=O)O1 (stereo unspecified)")
"inactive"
>>> answer_label("N/C(=N\\c1nc(N)cc(N)n1)Nc1ccc(S(N)(=O)=O)cc1")
"inactive"
>>> answer_label("C#CC(OC(C)=O)C1OC(n2cnc3c(Cl)nc(Cl)nc32)C(OC(C)=O)C1OC(C)=O (stereo unspecified)")
"inactive"
>>> answer_label("O=C(Cc1ccccc1)NCc1ccccc1Cl")
"inactive"
>>> answer_label("CC(O)CC(C)CO (stereo unspecified)")
"inactive"
>>> answer_label("CC(=O)N(C)CCc1c[nH]c2ccccc12")
"inactive"
>>> answer_label("CCCCCCCCCCCCCCCCSS(=O)(=O)O")
"inactive"
>>> answer_label("O=C(O)c1cc(-c2ccc(-c3ccccc3)cc2)nc2cc3ccccc3cc12")
"inactive"
>>> answer_label("ClCc1nnc(-c2ccccc2)o1")
"inactive"
>>> answer_label("CCSc1nnc2c(-c3ccccc3)n[nH]c2n1")
"inactive"
>>> answer_label("O=c1c(Cc2ccccc2)c(O)cc2n1CCC2")
"inactive"
>>> answer_label("COc1ccc(N=Nc2ccccc2)cc1")
"inactive"
>>> answer_label("O=[N+]([O-])c1ccc(OP(=O)(O)O)cc1")
"inactive"
>>> answer_label("CCOc1cc[n+](C)c2ccc(C)cc12")
"inactive"
>>> answer_label("CC1(C)C(=NNc2ccccc2)C(C)(C)C1=NNc1ccccc1")
"inactive"
>>> answer_label("Cc1ccc(NC(=O)/C(CC(=O)c2c[n+](=O)c3ccccc3n2O)=N\\NC(=O)C[n+]2ccccc2)cc1")
"inactive"
>>> answer_label("CCc1c(CNc2ccc(Cl)c(Cl)c2)ccc2nc(N)nc(N)c12")
"active"
>>> answer_label("Cc1cc(-n2nnc(C(=O)O)c2-c2ccccc2)c2ccc(Cl)cc2n1")
"inactive"
>>> answer_label("COc1ccc(C2S/C(=C\\c3cccc([N+](=O)[O-])c3)C(=O)N2NC(=O)Cc2ccccc2)cc1 (stereo unspecified)")
"inactive"
>>> answer_label("COC(=O)[C@@]1(C(C)CC(=O)O)CCCCC1=O (stereo partly specified)")
"inactive"
>>> answer_label("CC(C)COCC1COC2(OCC(C)(C)C2OC(=O)Nc2ccccc2)O1 (stereo unspecified)")
"inactive"
>>> answer_label("Cc1nc(/N=C(\\N)Nc2ccc(Cl)c(Cl)c2)[nH]c(=O)c1Cc1ccccc1")
"inactive"
>>> answer_label("CC(=O)NCCO")
"inactive"
>>> answer_label("CCCCC(/C=C(/C)C(=O)O)CC (stereo unspecified)")
"inactive"
>>> answer_label("N#CCCC1(c2ccccc2)CCC/C(=C/c2ccccc2)C1=O (stereo unspecified)")
"inactive"

----------
- Assay name: NCI Yeast Anticancer Drug Screen. Data for the mec2-1 strain (AID 157)
- Experimental conditions: S. cerevisiae mec2-1 strain, at 50.0 µM
This is part of a sample that, as a whole, favours compounds with a hit. Of some 79,000 tested, about 15% had one in any assay. Active and inactive are the calls of the source. Rule as the data show it: active = growth inhibition above about 70%; inactive = the rest.
Possible outcomes: active, inactive

>>> answer_label("CC1(C)C2CCC(OC(=O)c3ccc([N+](=O)[O-])cc3)C1C2 (stereo unspecified)")
"inactive"
>>> answer_label("O=c1c2n(c(=O)c3n1CCC=3)CCC=2")
"inactive"
>>> answer_label("CC(=O)CC(=O)NC(C)(C)CC(C)(C)C")
"inactive"
>>> answer_label("CSC(=N/N=C(\\C)c1ccccn1)SC")
"inactive"
>>> answer_label("Cc1ncc2c(n1)NC(c1ccc([N+](=O)[O-])cc1)NC2 (stereo unspecified)")
"inactive"
>>> answer_label("NC(N)=NS(=O)(=O)c1ccc(N=Cc2c3ccccc3nc3ccccc23)cc1")
"active"
>>> answer_label("O=S(=O)(c1ccccc1)N1CN(S(=O)(=O)c2ccccc2)CN(S(=O)(=O)c2ccccc2)C1")
"inactive"
>>> answer_label("CCOCC(=O)NC1Cc2cc(OC)c(OC)cc2C1O (stereo unspecified)")
"inactive"
>>> answer_label("CCCCCCCCCCCCCCCCOCC(COS(C)(=O)=O)OS(C)(=O)=O (stereo unspecified)")
"inactive"
>>> answer_label("[Cl][Pt+2][Cl].[NH-]C1CCCCC1C1CCCCC1[NH-] (stereo unspecified)")
"inactive"
>>> answer_label("O=[N+]([O-])c1ccc(-n2cnc3c(Cl)ncnc32)cc1")
"inactive"
